Would you kindly list Ret for each of these molecules?
# Organism: Rattus norvegicus
# PROTOCOL DETAILS: Open TG-GATES - Regimen: Single
# Assay type: toxicity, organism-based, Sprague-Dawley
# Design: regimen Single, gender Male, age 6 weeks
# ASSAY SETUP: in vivo, po, 30 mg/kg, 3 h, tissue Blood, route gavage, dose level Middle
Please reply with the bare figure in % and do not write the unit itself.

Measured Ret of CN(C)CCN(Cc1cccs1)c1ccccn1 : 7.3

Measured Ret of CN(C)CCCN1c2ccccc2CCc2ccccc21 [IMIPRAMINE] : 8.1

Measured Ret of CN(C)CCCN1c2ccccc2CCc2ccc(Cl)cc21 [CLOMIPRAMINE] : 7.9

Measured Ret of CC1=C(/C=C/C(C)=C/C=C/C(C)=C/CO)C(C)(C)CCC1 [RETINOL] : 8.3
